The values you see were collected from ChEMBL document CHEMBL1152196.

Listed below: IC50 values for each entry.
biological target: Rho-associated protein kinase 2 (Homo sapiens); assay: Inhibition of ROCK2
Sequence (O75116 whole entry): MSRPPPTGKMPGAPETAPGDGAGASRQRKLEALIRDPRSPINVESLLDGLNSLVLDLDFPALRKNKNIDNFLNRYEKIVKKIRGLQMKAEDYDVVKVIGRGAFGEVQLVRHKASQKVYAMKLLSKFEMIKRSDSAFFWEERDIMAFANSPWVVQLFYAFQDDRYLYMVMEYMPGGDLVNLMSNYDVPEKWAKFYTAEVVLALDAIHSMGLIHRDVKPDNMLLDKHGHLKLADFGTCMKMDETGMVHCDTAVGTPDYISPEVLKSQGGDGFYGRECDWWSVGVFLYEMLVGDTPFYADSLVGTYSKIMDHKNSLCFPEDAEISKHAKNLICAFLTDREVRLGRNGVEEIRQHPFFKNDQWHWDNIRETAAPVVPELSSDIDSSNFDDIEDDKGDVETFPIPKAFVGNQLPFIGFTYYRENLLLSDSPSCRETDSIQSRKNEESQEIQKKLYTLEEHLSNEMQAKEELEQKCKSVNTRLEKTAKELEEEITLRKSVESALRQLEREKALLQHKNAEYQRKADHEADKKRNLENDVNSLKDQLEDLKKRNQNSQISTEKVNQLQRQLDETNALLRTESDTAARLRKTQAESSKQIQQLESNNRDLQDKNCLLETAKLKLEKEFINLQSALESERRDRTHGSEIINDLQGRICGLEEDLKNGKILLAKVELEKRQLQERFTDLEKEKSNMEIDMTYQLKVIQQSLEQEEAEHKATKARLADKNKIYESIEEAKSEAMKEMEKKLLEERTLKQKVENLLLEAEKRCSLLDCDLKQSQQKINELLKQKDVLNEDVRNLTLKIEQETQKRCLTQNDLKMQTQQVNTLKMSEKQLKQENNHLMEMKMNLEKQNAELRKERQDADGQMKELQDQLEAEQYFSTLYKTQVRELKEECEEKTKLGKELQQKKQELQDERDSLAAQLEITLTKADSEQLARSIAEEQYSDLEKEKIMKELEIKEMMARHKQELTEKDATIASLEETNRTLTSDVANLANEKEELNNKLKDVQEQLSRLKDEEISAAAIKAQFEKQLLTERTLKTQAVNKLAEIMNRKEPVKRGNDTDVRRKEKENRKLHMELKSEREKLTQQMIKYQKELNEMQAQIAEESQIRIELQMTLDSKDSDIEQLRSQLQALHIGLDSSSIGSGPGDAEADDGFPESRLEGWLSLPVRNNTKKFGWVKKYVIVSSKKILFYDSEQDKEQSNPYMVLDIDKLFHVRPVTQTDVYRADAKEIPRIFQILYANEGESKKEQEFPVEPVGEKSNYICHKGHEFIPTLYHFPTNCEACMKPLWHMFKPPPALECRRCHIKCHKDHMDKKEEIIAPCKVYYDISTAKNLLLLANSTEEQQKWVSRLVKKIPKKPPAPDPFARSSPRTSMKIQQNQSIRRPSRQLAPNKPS
Give the value, in units of nM, as a plain number.

Guide cases for IC50, answers given:
1. Nc1nccc(-c2ccc3nc(C4COc5ccc(F)cc5C4)[nH]c3c2)n1 (stereo not drawn) = 6
2. CC(C)Oc1ccc2c(c1)CC(c1nc3ccc(-c4ccnc(N)n4)cc3o1)CO2 (stereo not drawn) = 294
3. COc1ccc2c(c1)CC(c1nc3ccc(-c4ccnc(N)n4)cc3o1)CO2 (stereo not drawn) = 2

[Q] Requested field: IC50. Item: c1ccc2c(c1)CC(c1nc3ccc(-c4cn[nH]c4)cc3o1)CO2 (stereo not drawn)
[A] 21

[Q] Now the compound Cc1ccc2c(c1)CC(c1nc3ccc(-c4ccnc(N)n4)cc3o1)CO2 (stereo not drawn)
[A] 78

[Q] Now the compound c1ccc2c(c1)CC(c1nc3ccc(-c4cn[nH]c4)cc3[nH]1)CO2 (stereo not drawn)
[A] 27
